Source listed as PubChem BioAssay (NCI).

Tested on: HCT-15 colon
Experiment: NCI tumour cell line growth inhibition, 48 h
I'd appreciate it if you could supply TGI values for the items below.

Recorded TGI for CCC1=NC(C(F)(F)F)(C(F)(F)F)N=C(/N=C(/N)N(C)C(C(C)C)P(=O)(OC(C)C)OC(C)C)O1 (stereo not given) , please?
> 100 µM

Which TGI is listed for CCOC(=O)NC(=S)c1ccc(O)c2ccccc12 ?
> 100 µM

Quick one: TGI of CCc1nc2cc(/C=C/C(=O)NO)ccc2c(=O)n1CCc1ccc(F)cc1 ?
39.6 µM

Would you kindly share the measured TGI for Cc1ccc(/C=C(\C#N)c2ccccc2)cc1 ?
> 100 µM

Request the reported TGI associated with NC(=O)C(Nc1ccc(Cl)cc1)c1cc2cc(Br)ccc2nc1Cl (stereo not given)
> 50 µM

Value lookup for TGI; key = C1CCN2CC3CCCN4CCCC(C2C1)C34 (stereo not given)
> 100 µM

Given the entry COc1cc2ncn(-c3cc(OCc4ccccc4C(F)(F)F)c(C(C)=O)s3)c2cc1OC , report its measured TGI.
> 25 µM

What value of TGI has been recorded for this entry: COc1ccc2c(c1)N(CCO)C1=C(C(=O)OC1)C2c1ccccc1 (stereo not given)
> 50 µM

Quick one: TGI for N#CCCN(CCC#N)c1ccc(C(N=Nc2ccc(Cl)cc2)=Nc2ccc(F)cc2)cc1 ?
> 100 µM

Entry N#Cc1c(-c2ccccc2)c(C#N)c(=O)n(C2OC(CO)C(O)C(O)C2O)c1S (stereo not given) : reported TGI = ?
> 100 µM

----------
Tested on: U251 CNS
Test: NCI tumour cell line growth inhibition, 48 h
READOUT: TGI (µM)
Quick note: give the figure in µM, leave out the unit.

API: value(readout=TGI, system=U251 CNS) for record BrCC(Br)(c1ccccc1)c1ccccc1-c1cc(-c2ccccc2)cc(-c2ccccc2)n1 (stereo not given)
5.85

Provide the documented TGI with U251 CNS as the system for O=C(O)c1ccc(Nc2nc3cc(C(F)(F)F)ccc3nc2-c2ccccc2)cc1
34.2

----------
Tested on: HOP-18 NSCLC
Experiment: NCI tumour cell line growth inhibition, 48 h
READOUT: TGI

Endpoint output: TGI of O=C(O)CCSC(=O)Nc1ccccc1Cl . Value?
> 100 µM

Which TGI value is on record for CCC(C)C1NC(=O)CNC(=O)C2Cc3c([nH]c4cc(O)ccc34)S(=O)CC(NC(=O)CNC1=O)C(=O)NC(CC(=O)O)C(=O)N1CC(O)CC1C(=O)NC(C(C)C(O)CO)C(=O)N2 (stereo not drawn) ?
> 88.9 µM

Need TGI, item CC1=C2[C@H](c3ccccc3)C3C=CC2(c2ccccc23)N(C(=O)C(c2ccccc2)c2ccccc2)C1=O (stereo partly drawn)
> 100 µM

What value of TGI has been reported for the following molecule? CN(C)CCNC(=O)c1cccc2ncc(-c3ccccc3)nc12
> 64.3 µM

Fill blank: measured TGI of the molecule CC(=O)ON(C(C)=O)C1C(COC(c2ccccc2)(c2ccccc2)c2ccccc2)OC2OC3(CCCC3)OC21 (stereo not drawn) is ____.
> 100 µM

Please give the measured TGI for this molecule: O=c1nc2sc3ccc4ccccc4c3n2[nH]c1=O
> 100 µM

Reported TGI for Cc1ccc(NC(=O)CC/C(CC(=O)C(C)(C)C)=N\Nc2ccc([N+](=O)[O-])cc2[N+](=O)[O-])cc1C : what is it?
> 100 µM

Entry under review: NC(=Nc1nc(-c2ccccn2)cc2ccccc12)c1ccccn1 . Reported TGI?
27.1 µM

----------
Assign TGI to each entry below.
System: MDA-MB-231 breast
Assay: NCI tumour cell line growth inhibition, 48 h

Report TGI for CC(=O)Oc1c(C)c2c(c3ccccc13)OC(C)(C)C2 tested on MDA-MB-231 breast.
48.6 µM

Field: TGI (MDA-MB-231 breast). Entry: COc1cc(C23OCC(Cc4cc5c(cc42)OCO5)C3CO)cc(OC)c1OC (stereo unspecified)
> 84.4 µM

Query the reported TGI for MDA-MB-231 breast; item: O=C(O)CCC(NC(=O)c1ccc(CNc2nc3ccccc3nc2C(=O)O)cc1)C(=O)O (stereo unspecified)
> 100 µM

Notebook: pull reported TGI for MDA-MB-231 breast, entry O=C(O)C12C3CCC(O3)C1(C(=O)O)C1CCC2O1 (stereo unspecified)
> 100 µM

# value lookup — system MDA-MB-231 breast, readout TGI, item O=C(CCOS(=O)(=O)CF)N1CCN(C(=O)CCOS(=O)(=O)CF)CC1
> 100 µM

Request: TGI, test system MDA-MB-231 breast, entry CC1(C)CN=C(Nc2ccc(F)c(F)c2)S1
> 100 µM

----------
System: HOP-92 NSCLC
Test: NCI tumour cell line growth inhibition, 48 h; in the data active means GI50 below about 0.43 µM; inactive means the rest
The reply should name one outcome from active, inactive

Test call, this molecule: CCOc1c(C#N)c2c(N)ncnc2n1C1OC(CO)C(O)C1O (stereo not given)
inactive

What call does the record list for CC(C)CCC(=O)[C@@H](C)[C@H]1[C@@H](OC2OCC(O)C(O)C2NS(C)(=O)=O)C[C@H]2[C@@H]3CC=C4C[C@@H](O)CC[C@]4(C)[C@H]3CC[C@]12C (stereo not given in full) ?
inactive

Dear all, I need the recorded test outcome for Cc1cn2c(/C=C3/C(=O)Nc4ccc(F)cc43)c(C)nc2s1 , thank you.
inactive

For COc1ccc(/C=C\c2cc(OC)c(OC)c(OC)c2)c(O)c1O , what call appears in the results of this test?
active

Could you kindly confirm the outcome this assay logged for CCCN1C(=O)/C(=C/c2ccc(O)cc2)SC1=Nc1ccc(OC)cc1 ?
inactive

Could you check what this test reported for CCc1nc2cc(/C=C/C(=O)NO)ccc2c(=O)n1CCc1ccc(F)cc1 ?
inactive

I would be grateful if you could indicate the recorded call for NC(=Nc1nc(-c2ccccn2)cc2ccccc12)c1ccccn1 .
active

Outcome logged for O=C(Cn1c(C(=O)c2ccccc2)nc2ccccc21)c1ccc(F)cc1 in this assay:
inactive

Hi, sorry to bother you, what did the test record for CCCCCCN(C)Cc1ccc(OCCOc2ccc(CN(C)CCCCCC)cc2)cc1 ?
active

Check the results log: what was the call for COC(=O)c1ccc2c(c1)c1c(C)c3ccncc3c(C)c1n2C ?
active

----------
System: UACC-257 melanoma
Experiment: NCI tumour cell line growth inhibition, 48 h; in the data active = GI50 below about 0.43 µM; inactive = the rest
Reply using exactly one outcome from 1 (yes) for active, 0 (no) for inactive

Would you mind telling me which call this test gave CSc1ccc(C2=NN(C(C)=O)C(c3ccc(F)cc3)C2)cc1 (stereo unspecified) ?
0 (no)

Which outcome was entered for the compound CC(C)(C)NC/C(=C\c1ccccc1)C(=O)c1ccccc1 in this test?
0 (no)

Please state the recorded outcome for this compound: CCOC(=O)c1cc(-c2ccc(OC)c(OC)c2)[nH]c1N/N=C/c1c(Cl)cccc1Cl
0 (no)

Per the assay record, what outcome was assigned to CCCCCCN(C)Cc1ccc(OCCOc2ccc(CN(C)CCCCCC)cc2)cc1 ?
0 (no)

What did the test return for Cc1nnc(-c2ccc(C)c(-c3ccc(C(=O)NCc4ccc(Cl)cc4)cc3)c2)o1 ?
0 (no)

Test call, this compound: CCc1nc2cc(/C=C/C(=O)NO)ccc2c(=O)n1CCc1ccc(F)cc1
0 (no)

Any idea what this test logged for O=S(=O)(Nc1ccc2ccccc2c1)c1ccc(-c2cnc(C3CC3)o2)cc1 ?
0 (no)

How did this test come out for Cc1cc(NNC(=O)c2ccccc2O)nc(Nc2nc3ccccc3o2)n1 ?
0 (no)

Kindly provide the recorded test outcome for the following compound: Cc1cn2c(/C=C3/C(=O)Nc4ccc(F)cc43)c(C)nc2s1
0 (no)

For CC[C@@H](C)Nc1cc(C(=O)NC2CC3CCC(C2)N3c2ccc(C(=O)C3CC3)cn2)c(C)cc1C(N)=O (stereo partly specified) , which call appears in the assay record?
1 (yes)

Any idea what this test logged for COc1ccc(CNc2cnc3cc(N)cc(N)c3n2)cc1 ?
0 (no)

----------
Test system: UO-31 renal
Experiment: NCI tumour cell line growth inhibition, 48 h
Could you please report measured TGI for the items listed next?

Look at this compound and give its reported TGI. CSc1ccc(C2=NN(C(C)=O)C(c3ccc(F)cc3)C2)cc1 (stereo unspecified)
29.8 µM

Please look up its TGI: CC(C)(C)NC/C(=C\c1ccccc1)C(=O)c1ccccc1
2.88 µM

// returns reported TGI for input COc1ccc(CNc2cnc3cc(N)cc(N)c3n2)cc1
33.7 µM

Which TGI value is on record for Cc1c(C2Cc3ccccc3N2)c2ccccc2n1C (stereo unspecified) ?
> 100 µM

Fill in: TGI of Cc1cc(C)nc(NS(=O)(=O)c2ccc(NC(=O)c3ccc(Cl)c4c(Nc5ccc(S(=O)(=O)N=C(N)N)cc5)c5ccccc5nc34)cc2)n1 is ___
> 100 µM

For the compound shown here, O=C(Nc1ccc2c(c1)OCO2)C(=O)c1c[nH]c2cc(F)ccc12 , give the reported TGI.
44.9 µM

Which value of TGI has been reported for CCN(CC)COC(=S)S in the records?
> 100 µM

Fill in: TGI of CCCCN=C1OCc2[nH][nH]c(=O)c21 is ___
> 100 µM

Reported TGI, compound CC(Oc1ccccc1Cl)C(=O)NN1C(=O)CSC1c1ccc(Cl)cc1 (stereo unspecified) : ____
> 100 µM

Which measured TGI value corresponds to C#CCN(N=O)C(=O)NCCCC(NC(C)=O)C(=O)NCc1ccccc1 (stereo unspecified) ?
> 100 µM

What value of measured TGI is listed for COc1ccc(-c2nc(-c3cnccn3)n(COCCO)n2)cc1 ?
> 100 µM
